- System: beef heart muscle phosphodiesterase
- PROCEDURE DETAILS: Phosphodiesterase inhibitory activity
- Assay type: biochemical
- TEST CONTEXT: 1 mM
ATTRIBUTE MEASURED: Action on phosphodiesterase % Inhibition (%)

Worked examples follow.
Cn1c(=O)c2[nH]cnc2n(C)c1=O [theophylline, reference compound]: 32
CC1=C(CC(O)C(C)C(=O)O)C(=O)c2ccccc2C1=O (stereo not drawn) [drawing 11 R#3]: 40

(P) COC1=C(OC)C(=O)C(CCC(C)CO)=C(C)C1=O (stereo not drawn) [drawing 19 R: H3 CO]
(Q) COC1=C(OC)C(=O)C(C/C=C(\C)CCCO)=C(C)C1=O [drawing 17 R#1]
(R) CC(=CCC1=C(C)C(=O)C(C)=C(C)C1=O)CCC=C(C)CCC(C)(C)O [drawing 20 R#1]
(S) CC1=C(C/C=C(\C)CO)C(=O)c2ccccc2C1=O [drawing 15 R#2]
List items by Action on phosphodiesterase % Inhibition in falling order. Arrange the labels as the request states and list them. Q, S, P, R

(1) CC(=CCC1=C(C)C(=O)c2ccccc2C1=O)CCC=C(C)CCC(C)(C)O [drawing 20 R#2]
(2) CC1=C(C)C(=O)C(C/C=C(\C)CCCO)=C(C)C1=O [drawing 17 R#2]
(3) CC1=C(C)C(=O)C(CC(O)C(C)C(=O)O)=C(C)C1=O (stereo not drawn) [drawing 11 R#2]
(4) CC1=C(C/C=C(\C)C(=O)O)C(=O)c2ccccc2C1=O [drawing 13 R#3]
// smallest Action on phosphodiesterase % Inhibition at index 0, largest at the end Arrange the labels as the request states and list them. 3, 1, 2, 4

----------
- Test system: Rat liver lysosome
- PROCEDURE DETAILS: Lysosomal membrane stabilizing activity (release of β-glucuronidase and acid phosphatase)
- Format: biochemical
- TEST CONTEXT: 2 × 10^-4 M, 37° C., 90 minutes
ATTRIBUTE MEASURED: % Inhibition on release of acid phosphatase (%)

Worked examples follow.
COC1=C(OC)C(=O)C(CCC(C)CO)=C(C)C1=O (stereo not drawn) [drawing 19 R: H3 CO]: 43
CC1=C(C)C(=O)C(CC(O)C(C)C(=O)O)=C(C)C1=O (stereo not drawn) [drawing 11 R#2]: 48
CC1=C(CC(O)C(C)C(=O)O)C(=O)c2ccccc2C1=O (stereo not drawn) [drawing 11 R#3]: 35

(A) CC1=C(C)C(=O)C(CCC(C)CO)=C(C)C1=O (stereo not drawn) [drawing 19 R: H3 C]
(B) CC1=C(C/C=C(\C)CO)C(=O)c2ccccc2C1=O [drawing 15 R#2]
Hi there, can you help? I need to know whether A or B has lower measured % Inhibition on release of acid phosphatase. Pick one and reply with its label. A
(A: 21%, B: 39%)

----------
- Tested on: beef heart muscle phosphodiesterase
- PROCEDURE DETAILS: Phosphodiesterase inhibitory activity
- Assay type: biochemical
- TEST CONTEXT: 1 mM
ATTRIBUTE MEASURED: Action on phosphodiesterase % Inhibition (%)

CC1=C(C)C(=O)C(C/C=C(\C)CO)=C(C)C1=O [drawing 15 R#1]: 41
COC1=C(OC)C(=O)C(C/C=C(\C)C(=O)O)=C(C)C1=O [drawing 13 R#1]: 47
CC1=C(C)C(=O)C(C/C=C(\C)C(=O)O)=C(C)C1=O [drawing 13 R#2]: 42
COC1=C(OC)C(=O)C(CC(O)C(C)C(=O)O)=C(C)C1=O (centres unmarked) [drawing 11 R#1]: 60
CC1=C(C)C(=O)C(CCC(C)CO)=C(C)C1=O (centres unmarked) [drawing 19 R: H3 C]: 44
